Target desc: T1, Human Tau 2N4R, wild type, recombinant full length (human, UniProt P10636 2-758)
T1 construct: Full length 2N4R isoform; monomer in SPR and ELISA; heparin-induced aggregates or seeds in the functional assays; also called Tau441; Tau-441
T1 sequence (P10636 other isoform, or with tags, fused parts or gaps limits assumed): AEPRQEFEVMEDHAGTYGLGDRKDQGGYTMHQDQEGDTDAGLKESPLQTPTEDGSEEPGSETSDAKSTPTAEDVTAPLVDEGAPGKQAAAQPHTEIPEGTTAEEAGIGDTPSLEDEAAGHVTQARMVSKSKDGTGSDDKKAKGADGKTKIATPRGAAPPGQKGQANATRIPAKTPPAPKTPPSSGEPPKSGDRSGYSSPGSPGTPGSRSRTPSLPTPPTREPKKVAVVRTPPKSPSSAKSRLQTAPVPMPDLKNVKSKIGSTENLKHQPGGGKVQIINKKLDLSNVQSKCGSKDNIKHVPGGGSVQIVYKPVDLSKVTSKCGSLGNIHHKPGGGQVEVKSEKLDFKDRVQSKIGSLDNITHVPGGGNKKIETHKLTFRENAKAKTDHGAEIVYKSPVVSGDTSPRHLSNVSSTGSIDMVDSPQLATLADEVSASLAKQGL
Experiment notes: SPR BIAcore, mAb captured by anti-human IgG, Tau flowed, 1:1 Langmuir
Protocol: All experiments were performed using a BIAcore™ T-100 instrument (GE Healthcare). […] Binding of humanized and mouse antibodies were analyzed by BIAcore™ to determine their relative association rates (ka), dissociation rates (kd), and equilibrium binding constants (KD). […] The binding constants kₐ, kd, and KD were determined using a 1:1 Langmuir fitting model. […]
# kon listing for each entry below
In your response, put the unit directly after the numeric value.

Binder: 7G6-HCzu12-LCzu15 (antibody, human IgG1, kappa, V domains shown, humanized, human IgG1 kappa) VH: EVQLLESGGGLVQPGGSLRLSCAASGYTFTTYWITWVRQAPGKGLEWVGDIYPGSSICNYNEKFKSRFTISVDNSKSTAYLQMNSLRAEDTAVYYCAREDGYDAWFAYWGQGTLVTVSS VL: DVQMTQSPSSLSASVGDRVTITCRSSQSILHSNGNTYLEWYQQKPGKAPKLLISKVSNRFSGVPSRFSGSGSGTDFTLTISSLQPEDFATYYCFQGSHVPFTFGQGTKLEIKR
kon: 1.47e+06 M⁻¹ s⁻¹

From here, focus on the item given below.
Summary for this binder, 7G6-HCzu11-LCzu11 (antibody, human IgG1, kappa, V domains shown, humanized, human IgG1 kappa) VH: EVQLLESGGGLVQPGGSLRLSCAASGYTFTTYWITWVRQAPGKGLEWVSDIYPGSSICNYNEKFKSRFTISRDNSKNTLYLQMNSLRAEDTAVYYCAKEDGYDAWFAYWGQGTLVTVSS VL: DIQMTQSPSSLSASVGDRVTITCRSSQSILHSNGNTYLEWYQQKPGKAPKLLIYKVSNRFSGVPSRFSGSGSGTDFTLTISSLQPEDFATYYCFQGSHVPFTFGQGTKLEIKR : kon is 853000 M⁻¹ s⁻¹

Sourced from patent US20190112365A1
